Biological target: HTH-type transcriptional regulator ExsA (Pseudomonas aeruginosa (strain ATCC 15692 / PAO1 / 1C / PRS 101 / LMG12228))
Sequence (P26993 whole entry): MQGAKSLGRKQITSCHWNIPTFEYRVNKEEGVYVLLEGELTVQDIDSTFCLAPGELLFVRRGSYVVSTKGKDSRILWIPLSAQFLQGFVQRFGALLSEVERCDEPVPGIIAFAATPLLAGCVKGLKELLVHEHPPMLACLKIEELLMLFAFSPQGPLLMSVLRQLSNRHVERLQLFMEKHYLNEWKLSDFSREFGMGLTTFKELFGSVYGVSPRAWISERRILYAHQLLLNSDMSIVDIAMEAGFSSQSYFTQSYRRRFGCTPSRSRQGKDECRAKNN
Assay: Inhibition of Pseudomonas aeruginosa PAO1 ExsA DNA binding activity
pIC50: −log10 of the molar value.
Recorded endpoint: pIC50

So what does the record say about pIC50 for CC(=O)c1ccc(/C=C/C(=O)N(CC(N)=O)c2ccc(-c3nc4ccc([N+](=O)[O-])cc4n3O)cc2)cc1 ?
< 4.32

Then O=C(/C=C/c1ccc(C(O)(O)C(F)(F)F)cc1)Nc1ccc(-c2nc3ccc([N+](=O)[O-])cc3n2O)cc1 ?
< 4.00

Similarly, CC(=O)c1ccc(/C=C/C(=O)N(CC(=O)O)c2ccc(-c3nc4ccc(C#N)cc4n3O)cc2)cc1 ?
< 4.29

Same lookup for CC(=O)c1ccc(/C=C/C(=O)N(CC(N)=O)c2ccc(-c3nc4ccc(C#N)cc4n3O)cc2)cc1 , please.
< 4.31
